Source: patent US20240066027A1

quantity: melting point

| chemical-structure | quantity | measured-value |
| --- | --- | --- |
| CC(C)Cn1cc(-c2cccc(OC(F)(F)F)c2)c2ccc(C(=O)N3CCNC(=O)C3(C)C)nc21 | melting point | 202 to 204 °C |
| CC(C)Cn1cc(-c2cc(F)cc(F)c2)c2ccc(C(=O)N3CCNC(=O)C3(C)C)nc21 | melting point | 165 to 170 °C |

Let us move to another entry and its melting point.
May I ask what melting point has been recorded for CC(C)Cn1cc(C2CCOCC2)c2ccc(C(=O)N3CCNC(=O)C3(C)C)nc21 ? > 250 °C

###

# system-name: human PAR-2 (hPAR-2) receptor expressed in HEK-293 T cells in an endogenous manner (Homo sapiens, UniProt P55085)
# Construct: human PAR-2 (hPAR-2) receptor expressed in HEK-293 T cells in an endogenous manner; endogenous in cells
# Sequence (P55085 26-397): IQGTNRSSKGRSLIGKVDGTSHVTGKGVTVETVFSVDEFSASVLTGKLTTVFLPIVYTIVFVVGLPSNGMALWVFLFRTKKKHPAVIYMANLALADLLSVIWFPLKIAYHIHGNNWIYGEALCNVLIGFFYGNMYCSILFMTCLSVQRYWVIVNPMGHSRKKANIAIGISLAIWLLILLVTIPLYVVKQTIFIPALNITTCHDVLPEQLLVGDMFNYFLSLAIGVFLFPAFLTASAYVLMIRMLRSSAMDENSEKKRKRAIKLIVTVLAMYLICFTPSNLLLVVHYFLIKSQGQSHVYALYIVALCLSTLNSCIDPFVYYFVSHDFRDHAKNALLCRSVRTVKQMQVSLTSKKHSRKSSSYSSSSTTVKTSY
# test: In vitro human PAR-2 functional antagonist activity using calcium assays (Fluo4AM, FLIPR Tetra)
# cond: HEK-293 T cells stimulated by an EC80 of the 2-Furoyl-LIGRLO-NH2 peptide after 10 min incubation with compound; 20 concentrations, duplicate, two independent experiments
The entries below come with measured IC50 values attached.

Past entries and their recorded results:
| chemical-structure | measured-value |
| --- | --- |
| CC(C)Cn1cc(-c2cccc(OC(F)(F)F)c2)c2ccc(C(=O)N3CCNC(=O)C3(C)C)nc21 | 20 to 10000 nM |
| CC(C)Cc1nn(Cc2ccc(Cl)c(F)c2)c2ccc(C(=O)N3CCNC(=O)C3(C)C)nc12 | > 10000 nM |
| Cc1cc(N2CCN(C(=O)c3ncc4c(-c5ccc(Cl)c(F)c5)cn(CC(C)C)c4n3)C(C)(C)C2)nc(C)c1C(=O)O | 20 to 10000 nM |
| COCC(C)(C)n1cc(-c2ccc(Cl)c(F)c2)c2ccc(C(=O)N3CCNC(=O)C3(C)C)nc21 | < 20 nM |
| CN1C(=O)N(C)C2(CCN(C(=O)c3ccc4c(-c5ccc(Cl)c(F)c5)cn(C(C)(C)C)c4n3)CC2)C1=O | 20 to 10000 nM |
| CC(=O)c1cn(-c2ccc(Cl)c(F)c2)c2ccc(C(=O)N3CCC(CC(=O)O)CC3)cc12 | > 10000 nM |
| Cc1cc(N2CCN(C(=O)c3ccc4c(-c5ccc(Cl)c(F)c5)c(C(F)(F)F)n(CC(C)C)c4n3)C(C)(C)C2)nc(C)c1C(=O)O | < 20 nM |
| Cc1cc(N2CCN(C(=O)c3ccc4c(-c5ccc(Cl)c(F)c5)c(C)n(CC(C)C)c4n3)C(C)(C)C2)nc(C)c1C(=O)O | < 20 nM |

# IC50 lookup, item Cc1cc(N2CCN(C(=O)c3ccc4c(n3)c(C(C)(C)C)cn4-c3ccc(Cl)c(F)c3)C(C)(C)C2)nc(C)c1C(=O)O < 20 nM

Next entry: Cc1cc(N2CCN(C(=O)c3ccc4c(-c5ccc(Cl)c(F)c5)cn(C[C@H]5CCOC5)c4n3)C(C)(C)C2)nc(C)c1C(=O)O < 20 nM

What about CC(C)Cn1cc(-c2ccc(Cl)c(Cl)c2)c2ccc(C(=O)N3CCNC(=O)C3(C)C)nc21 ? < 20 nM

Same again, this time with CC(C)Cc1nn(-c2ccc(Cl)c(F)c2)c2ccc(C(=O)N3CCN(C)C(=O)C3)nc12 > 10000 nM

Please give the result for O=C(c1cc2c(cn1)c(-c1ccc(Cl)c(F)c1)nn2CC(F)(F)F)N1CC2CCC(C1)O2 too. > 10000 nM

Item: Cc1cc(N2CCN(C(=O)c3ccc4c(-c5ccc(Cl)c(F)c5)cn(C(C)(C)C)c4n3)C(C)(C)C2)cc(C)c1C(=O)O < 20 nM

Repeat for the following molecule: CC[C@@H](C)n1cc(-c2ccc(Cl)c(F)c2)c2ccc(C(=O)N3CCN(c4cc(C)c(C(=O)O)c(C)n4)CC3(C)C)nc21 < 20 nM

How about this molecule: CC1(C)C(=O)NCCN1C(=O)c1ccc2c(-c3ccc(Cl)c(F)c3)cn(CC3CC3)c2n1 < 20 nM

// query: Cc1cc(N2CCN(C(=O)c3ccc4c(-c5ccc(Cl)c(F)c5)cn(C(C)(C)c5ccccn5)c4n3)C(C)(C)C2)nc(C)c1C(=O)O < 20 nM

Moving on to the next molecule: CC(C)(C)n1cc(-c2ccc(Cl)c(F)c2)c2ccc(C(=O)N3CCS(=O)(=O)CC3)nc21 20 to 10000 nM
